Source: PubChem BioAssay (NCI)

system: ACHN renal; test: NCI-60 one-dose screen, 48 h (100 = growth as untreated, 0 = no growth, -100 = all killed); conditions: 10 µM unless noted
Compounds without any hit were thinned out: in the full panel of roughly 83,000, 20% have a hit.
quantity-name: growth (%)
Respond with the bare value in %.

Some molecules with known growth results, for comparison:
>  <test-smiles>
O=S(=O)(NCCCNc1nccc(-c2[nH]c(-c3ccccc3)nc2-c2ccc(F)c(O)c2)n1)c1ccccc1

>  <unit-info>
%

>  <recorded-number>
95.4

$$$$
>  <test-smiles>
COc1ccc2c(c1)c(-c1nc(N)nnc1-c1c[nH]c3ccccc13)cn2C

>  <unit-info>
%

>  <recorded-number>
44.7

$$$$
>  <test-smiles>
COc1cc(C(=O)c2cc(C(C)=O)c3cccc(C)n23)cc(OC)c1OC

>  <unit-info>
%

>  <recorded-number>
51.4

$$$$
>  <test-smiles>
CCc1cc2c(cc1Cl)nc1c(=O)[nH]c(=O)nc-1n2CCOCC(C)(C)C

>  <unit-info>
%

>  <recorded-number>
65.7

$$$$
>  <test-smiles>
Cc1cc(=O)[nH]c(O)c1C#N

>  <unit-info>
%

>  <recorded-number>
99.5

$$$$

Consider now this further molecule.
Task: Quick one: growth for CCCCCCOC(=O)c1cc(-c2ccc(F)cc2)nc2ccccc12 ?
Result: 100

###

tested on: HOP-92 NSCLC; assay: NCI-60 one-dose screen, 48 h; conditions: 10 µM unless noted
This is part of a sample that, as a whole, favours compounds with a hit. Of some 83,000 tested, about 20% had one in any assay. Active and inactive are the calls of the source. Rule for the calls: active = growth percent below 10; inactive = the rest.
Outcome (select one): true (1) = active, false (0) = inactive

>  <test-smiles>
CC(=C(c1ccc(OCCN2CCCC2)cc1)c1ccc(OCCN2CCCC2)cc1)c1ccc(Cl)cc1

>  <answer-label>
true (1)

$$$$

Task: Each molecule tested received a call. Report the one for CC(=O)Nc1cc(N2CCOCC2)c2nc(NC(=O)c3[nH]c(C)c(Cl)c3Cl)sc2c1 .
Result: false (0)

Task: Each molecule tested received a call. Report the one for O=C(O)CC1CCN(c2ccc3nnc(Cl)n3n2)CC1 .
Result: false (0)

Task: Each molecule tested received a call. Report the one for O=C(CCCCCCNC(=O)C(O)(O)C(F)(F)F)Nc1ncc(-c2ccccc2)s1 .
Result: true (1)

Task: Each molecule tested received a call. Report the one for C#CCN(C)CCCOc1ccc(NC(=O)CCCCCCC(=O)NO)cc1Cl .
Result: true (1)

###

Tested on: MCF7 breast
Assay: NCI-60 one-dose screen, 48 h (100 = growth as untreated, 0 = no growth, -100 = all killed)
Conditions: 10 µM unless noted
Protocol: Growth inhibition of the MCF7 human tumor cell line is measured as a screen for anti-cancer activity. Cells are grown in 96 well plates and exposed to the test compound for 48 hours. Compounds are tested at a single concentration, which is 10^-5 M for most compounds. The reported endpoint is percent growth (GI% or GIPRCNT), where numbers from 0 - 100% represent growth inhibition, and numbers from -100% - 0 represent cell death. For example, a value of 40 represents 60% growth inhibition. […]
Compounds without any hit were thinned out: in the full panel of roughly 83,000, 20% have a hit.
quantity-name: growth (%)
Respond with the bare value in %.

Task: Quick one: growth for Clc1ccc2[nH]cc(-c3cncn3CCc3ccc4c(c3)OCO4)c2c1 ?
Result: 63

Task: Quick one: growth for O=C(/C=C/Nc1ccc(S(=O)(=O)Nc2ncccn2)cc1)c1ccc(N=Cc2c(O)[nH]c3ccccc23)cc1 ?
Result: 87.4

###

This listing pairs compounds with measured growth.
system: NCI-H226 lung; test: NCI-60 one-dose screen, 48 h (100 = growth as untreated, 0 = no growth, -100 = all killed); details: 10 µM unless noted
Compounds without any hit were thinned out: in the full panel of roughly 83,000, 20% have a hit.
Respond with the bare value in %.

Some compounds with known growth results, for comparison:
>  <test-smiles>
COc1cc2oc(-c3cccc(NC(=O)c4cccc([N+](=O)[O-])c4)c3)cc(=O)c2c(OC)c1OC

>  <tested-target>
NCI-H226 lung

>  <recorded-number>
62.8

$$$$
>  <test-smiles>
O=C(CSc1nc2ccccc2c(=O)n1-c1ccc(S(=O)(=O)Nc2ccc(Cl)nn2)cc1)Nc1ccc(S(=O)(=O)Nc2ccc(Cl)nn2)cc1

>  <tested-target>
NCI-H226 lung

>  <recorded-number>
99

$$$$
>  <test-smiles>
CCOC(=O)c1ccc(NC2=CC(=O)C(C)=C(C)C2=O)cc1

>  <tested-target>
NCI-H226 lung

>  <recorded-number>
95.6

$$$$
>  <test-smiles>
N#Cc1c(-c2cccs2)c(C#N)c(=O)n(Cc2nc3ccccc3[nH]2)c1N

>  <tested-target>
NCI-H226 lung

>  <recorded-number>
87

$$$$
>  <test-smiles>
Fc1cccc(Cl)c1/C=N/Nc1nc(N/N=C/c2c(F)cccc2Cl)nc(N2CCCCC2)n1

>  <tested-target>
NCI-H226 lung

>  <recorded-number>
53.9

$$$$

Task: Quick one: growth for CN1CCN(Cc2ccc(NC(=O)c3cncc(C#Cc4cnc5ccc(N)nn45)c3)cc2C(F)(F)F)CC1 ?
Result: 17.2

###

System: A498 renal
Assay: NCI-60 one-dose screen, 48 h (100 = growth as untreated, 0 = no growth, -100 = all killed)
Conditions: 10 µM unless noted
Procedure: Growth inhibition of the A498 human tumor cell line is measured as a screen for anti-cancer activity. Cells are grown in 96 well plates and exposed to the test compound for 48 hours. Compounds are tested at a single concentration, which is 10^-5 M for most compounds. The reported endpoint is percent growth (GI% or GIPRCNT), where numbers from 0 - 100% represent growth inhibition, and numbers from -100% - 0 represent cell death. For example, a value of 40 represents 60% growth inhibition. […]
The panel holds about 83,000 compounds, 20% with a hit somewhere; the sample as a whole holds those more often.
quantity-name: growth (%)
Respond with the bare value in %.

Some molecules with known growth results, for comparison:
>  <molecule>
COC(=O)CCCNCCCn1ccc2cc(NCc3cccc(-c4ccccc4)c3C)ccc21

>  <tested-target>
A498 renal

>  <unit-info>
%

>  <recorded-number>
16.4

$$$$
>  <molecule>
O=C(/C=C/C=C/c1csc(Br)n1)NO

>  <tested-target>
A498 renal

>  <unit-info>
%

>  <recorded-number>
92.8

$$$$
>  <molecule>
COc1ccc2c(c1)c(-c1nc(N)nnc1-c1c[nH]c3ccccc13)cn2C

>  <tested-target>
A498 renal

>  <unit-info>
%

>  <recorded-number>
4.9

$$$$
>  <molecule>
O=C(CSc1nnc(-c2cccs2)n1-c1ccccc1)Nc1ccccc1F

>  <tested-target>
A498 renal

>  <unit-info>
%

>  <recorded-number>
79.9

$$$$
>  <molecule>
CCN(CC)c1ccc(/C=N/NC(=O)c2ccc(S(N)(=O)=O)cc2)cc1

>  <tested-target>
A498 renal

>  <unit-info>
%

>  <recorded-number>
44.3

$$$$

Task: Param readout= growth; system= A498 renal; entry= CC(=O)N1N=C(c2cc3ccccc3oc2=O)CC1c1cn(-c2ccccc2)nc1-c1ccc(C)cc1 (stereo not given) ; returns value.
Result: 101

Task: Param readout= growth; system= A498 renal; entry= N#Cc1cccc(-c2cc(-c3ccc4c(c3)OCCO4)[nH]n2)c1 ; returns value.
Result: 28.4

Task: Param readout= growth; system= A498 renal; entry= Cc1ccc(N2CCN(C3=C(Cl)C(=O)c4ncccc4C3=O)CC2)cc1 ; returns value.
Result: 111

Task: Param readout= growth; system= A498 renal; entry= COC(=O)N1CCN(CCNCc2ccc(NC(=O)c3ccc(C)c(C#Cc4cnc5cccnn45)c3)cc2C(F)(F)F)CC1 ; returns value.
Result: 47.8

Task: Param readout= growth; system= A498 renal; entry= Cn1cc(-c2nc(N)nnc2-c2c[nH]c3ccc(Br)cc23)c2cc(F)ccc21 ; returns value.
Result: 98.9

###

Tested on: NCI/ADR-RES ovarian
Assay: NCI-60 one-dose screen, 48 h (100 = growth as untreated, 0 = no growth, -100 = all killed)
Conditions: 10 µM unless noted
Experimental: Growth inhibition of the NCI/ADR-RES human […] tumor cell line is measured as a screen for anti-cancer activity. Cells are grown in 96 well plates and exposed to the test compound for 48 hours. Compounds are tested at a single concentration, which is 10^-5 M for most compounds. The reported endpoint is percent growth (GI% or GIPRCNT), where numbers from 0 - 100% represent growth inhibition, and numbers from -100% - 0 represent cell death. For example, a value of 40 represents 60% growth inhibition. […]
About 83,000 compounds went through this panel and 20% of them were active in at least one assay; those are over-represented in the sample as a whole.
quantity-name: growth (%)
Respond with the bare value in %.

Some molecules with known growth results, for comparison:
>  <molecule>
O=C(CCCCCCNC(=O)C(O)(O)C(F)(F)F)Nc1ccc(Cl)cc1

>  <quantity-name>
growth

>  <recorded-number>
24.6

$$$$
>  <molecule>
COc1ccc2[nH]cc(-c3nn4cc(-c5ccncc5)nc4s3)c2c1

>  <quantity-name>
growth

>  <recorded-number>
48.9

$$$$
>  <molecule>
O=C(CCCCCCNC(=O)C(O)(O)C(F)(F)F)Nc1ccc(-c2ccccc2)cc1

>  <quantity-name>
growth

>  <recorded-number>
7.74

$$$$

Task: Quick one: growth for CCOC(=O)Nc1ccc2c(ccn2C(=O)c2cccc(F)c2)c1 ?
Result: 19.8

Task: Quick one: growth for CCOP(=O)(OCC)OC[C@]12CCC(C)(C)CC1C1=CC[C@@H]3[C@@]4(C)CCCNC(C)(C)[C@@H]4CC[C@@]3(C)[C@]1(C)CC2 (stereo not given in full) ?
Result: 73.7
